Entry source: PubChem BioAssay

Biological target: Alpha-bungarotoxin (Bungarus multicinctus) (UniProt P60615)
Sequence (P60615 whole entry, looked up): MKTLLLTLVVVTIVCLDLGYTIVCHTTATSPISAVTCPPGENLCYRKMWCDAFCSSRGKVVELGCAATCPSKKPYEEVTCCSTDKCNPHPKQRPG
Assay: alpha-bungarotoxin binders on microarray, profiling panel, artefact control for SMM control protein annotation, biochemical, small-molecule microarray, Alexa647 label, 635/667 nm fluorescence (AID 1117)
Conditions: alpha-BTX-A647 binding fluorescence, higher = more signal
EXPERIMENTAL READOUT: composite z-score
Give bare numbers.

MOLECULE	EXPERIMENTAL READOUT	VALUE OBSERVED
CCCC[C@@H]1C[C@H]1[C@@H](NS(=O)(=O)c1cccc2cccnc12)c1ccc(-c2ccccc2)cc1	composite z-score	0.231
C=C(/C(=C/C[C@H](OC(=O)c1ccncc1)c1ccc(OCCO)cc1)c1cnc2ccccc2c1)C(C)C	composite z-score	1.67
COC(=O)[C@]1(CO)N=C(c2ccc(OCCCO)cc2)O[C@@H]1c1ccccc1N=[N+]=[N-]	composite z-score	-0.0978
COc1ccc(COC(=O)NN=C2C[C@@H](O)[C@@H](O)[C@@H]3[C@@H]4C(=O)N(Cc5ccc6c(c5)OCO6)C(=O)[C@@H]4CC[C@@H]23)cc1	composite z-score	0.452
CCCCC(=C=CC[C@H](O)c1ccccc1OCCO)C[C@H](O)COCc1ccccc1	composite z-score	1.04

Need composite z-score for each of these molecules.
1. COc1ccc([Si](C)(C)[C@@H]2[C@@H](CC(=O)N3CCC[C@H]3CO)O[C@]3(C(=O)N(Cc4cccc(N5CCC5=O)c4)c4ccccc43)[C@H]2C)cc1
2. O=C1C[C@]2(c3ccc([N+](=O)[O-])cc3)C(=O)N(CCN3CCOCC3)c3cc(CO)ccc3[C@H]2N1CC12CC3CC(CC(C3)C1)C2
3. COC(=O)CC=C[C@@H](C)[C@H](OC)c1ccccc1Br
4. COc1cccc([C@H]2Oc3ccc(OC)cc3C(=NOC(C)CN3CCCc4nc(C)c(C)cc43)[C@@H]2O)c1 (stereo not given in full)

### Response
1: 1.44; 2: 1.15; 3: -0.152; 4: -0.618

I have 6 molecules here; please give me composite z-score for each one.
1. O=C1[C@H]2[C@H]3[C@H](O)[C@H](O)CC(=NOCc4ccccc4)[C@@H]3CC[C@H]2C(=O)N1Cc1ccccc1
2. O=C1C[C@@H](O)[C@@H](O)[C@@H]2[C@@H]3C(=O)N(c4cccc(Oc5ccccc5)c4)C(=O)[C@@H]3CC[C@@H]12
3. O=C1c2ccccc2[C@@]2(Cc3ccccc3N(C3CC3)C2=O)[C@H](c2ccc(CO)cc2)N1Cc1ccccc1C(F)(F)F
4. COC(=O)[C@@H]1CC[C@H](C)[C@@H](c2ccc(C)cc2)N1C(=O)c1ccc(C=NOC[C@@H](O)COCc2ccco2)cc1
5. CC(C)[C@H](NC(=O)OC(C)(C)C)[C@@H](O)CC(=O)OC(C)(C)C
6. CS(=O)(=O)CCOC(=O)C1=CC(CCCO)=CC(c2cccs2)N(Cc2cccc(OC(F)(F)F)c2)C=C1C(=O)OCCS(C)(=O)=O (stereo not given)

### Response
1: 0.159; 2: 0.106; 3: -1.37; 4: -1.25; 5: -0.232; 6: 1.6
